assayProcedure: protein stability index of a GFP-peptide fusion (GPS, HEK-293T) (PSI 1-6); higher = more stable;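 further: 24-mer peptide tiles fused after GFP, lentivirally expressed, FACS-sorted into six equal bins by GFP/DsRed ratio, decoded by Illumina sequencing, PSI is the read-weighted mean bin number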
testSettings: treatment: MLN4924 1 uM, 8 h; c terminus: a fixed tail appended
Give protein stability index for every item shown.
Answer field: number only, no words.

*Q* What value of protein stability index has been recorded for this entry: VRKREAPAPEAESKQTEKDPGVQE [EFHC1]
*A* 5.61

*Q* Now try VAMLGVFLVSAVAHEYIFCFVLGF [SOAT2] .
*A* 3.14

*Q* Now try DRLNEQEGVPSVFNPPPSRPLQVN [FAF2] .
*A* 4.25

*Q* Now try SGEELHELFHTIDTHNTNNLDTEE [NECAB1] .
*A* 5.08

*Q* Now try LSFYNVTDRSHIYTFTDTFTEKLW [TRIM39] .
*A* 2.3

*Q* Now try MQKRSKAIHSSDEDEDEDDEEDFE [WASL] .
*A* 4.69

*Q* Now try IKIRPGEFEQFESTIGFKLPNHRA [EPB41L3] .
*A* 2.75

*Q* Now try LPVLRGFPAKYIYDPWNAPEGIQK [CRY1] .
*A* 2.28

*Q* Now try IKSIVEASKGCQLGKTEQGFENMD [TRIM63] .
*A* 4.38

*Q* Now try SYYDPGRLICDFPFDGLLEERALL [VPS39] .
*A* 2.68

*Q* Now try PAPGKLLGPCVVGYGIYYFIYSTW [SAT2] .
*A* 2.92

*Q* Now try SSLRRQFEFSVDSFQIVLDPMLDF [TENT5D] .
*A* 2.17

*Q* Now try LQSISWDPEDFEDAWKRPDALPGQ [TLE6] .
*A* 3.87

*Q* Now try TKPSFESGRRGPPPPPRSRGPPRG [RBMX] .
*A* 4.81

*Q* Now try KMKGFGFWPAKVMQKEDNQVDVRF [ZMYND11] .
*A* 3.11

*Q* Now try EWNQKRARKAMRNGISPIIIDNTN [N4BP2L1] .
*A* 3.02

*Q* Now try DQRNPAKESLETPSNGRIDIKQLI [SOAT1] .
*A* 4.24

*Q* Now try KEQAIWKHPQPAPAVTPDPWGVQG [PKD2L1] .
*A* 4.07

*Q* Now try YINLLNYMDRFTVAGVLPDIEQFF [SPNS1] .
*A* 2.84

*Q* Now try EELANLRASQREYEELRNSERAEV [RSPH3] .
*A* 5.18

###

assayProcedure: protein stability index of a GFP-peptide fusion (GPS, HEK-293T) (PSI 1-6); higher = more stable
testSettings: treatment: MLN4924 1 uM, 8 h; c terminus: a fixed tail appended
Param threshold (5) applies to protein stability index; output 1.0 when value >= threshold, 0.0 when value < threshold.

*Q* Given RGKLKKTEEELRRIQTQKEQAKEN [ZC2HC1C] , state whether its protein stability index is at least 5.
*A* 1.0

*Q* Now try GLIISGPILQEGMDEEKLKQLNCV [DLC1] .
*A* 0.0

*Q* Now try EKIDKLEQDMERRKADFKAGKALV [ZC3H15] .
*A* 0.0

*Q* Now try ESSVPVTPSVPPPASQHSTPAGLP [FBF1] .
*A* 1.0

*Q* Now try NARGMGIRSPRPASVATWAIFVHR [CTBP1-DT] .
*A* 0.0

*Q* Now try SVAVPPPPPNRMYPPPPPALPSSA [WASL] .
*A* 0.0

*Q* Now try YKIVKPLWTSFIQSVSYSKLLSVI [P2RY14] .
*A* 0.0

*Q* Now try WEHSAPQRLPRSAPPGSLVTKVTA [PCDHGC5] .
*A* 0.0

*Q* Now try FYQHLLLYIQSHYQLELQCCIDWT [SMG5] .
*A* 0.0

*Q* Now try TSFIRGPNPSKVLQQLLVLQPEQQ [CDS1] .
*A* 0.0

*Q* Now try TLVDESDLYNWEVAIFGPPNTLYE [UBE2R2] .
*A* 0.0

*Q* Now try TALVGLRQNLSKSWLDVQVSNTYV [TPD52L3] .
*A* 0.0

*Q* Now try SNRWLMVKIFLILIVFFIIFVVFL [STX5] .
*A* 0.0

*Q* Now try EPEEPSEIPERRDSGVGASLTRSN [DLC1] .
*A* 1.0

*Q* Now try LSKDHQEVETEGPESADTGDKSES [TOR1AIP2] .
*A* 1.0

*Q* Now try PAAGESLSGTRESLAQGPDAATTD [TBC1D10A] .
*A* 1.0

*Q* Now try CVPPSEFSEPSFITESYQTLHPIS [ETS1] .
*A* 0.0

*Q* Now try QSFREQEEPSNKRVRPLARVTSLA [NET1] .
*A* 0.0

*Q* Now try RQHIPDTYLCERCQPRNLDKERAV [KMT2E] .
*A* 0.0

*Q* Now try QTPILEGRSGPGCAVLDDSIYLVG [KLHL14] .
*A* 0.0

*Q* Now try QWWASVGMDDFLGVYSMPAGTKVF [TLE6] .
*A* 0.0

*Q* Now try GRLGRRDEDAGLPRPVQLDETHPY [NEK8] .
*A* 0.0

*Q* Now try EKSIEQTQIKGLKNKPKKMGHIKP [PHTF1] .
*A* 0.0

*Q* Now try AVGNSSGSGQNEESPRKRKKATEA [FBXO28] .
*A* 1.0

*Q* Now try MSDYRGFGIGSEILKNLSQVAMRC [SAT1] .
*A* 0.0

*Q* Now try MVFPAKRFCLVPSMEGVRWAFSCG [AASDHPPT] .
*A* 0.0

*Q* Now try PLESIDHSVTGFLCEPDPVHFSEA [ALG2] .
*A* 0.0

*Q* Now try TCSFNPGVIVANMTEWKHQRITKQ [GLT8D2] .
*A* 0.0

*Q* Now try VSLVTAELSKDAQASAAPAAPLPE [SLC29A1] .
*A* 0.0

*Q* Now try VTGETRVLSSTTLLPRQPLPLGIK [PALM] .
*A* 0.0

*Q* Now try DEDAGLPRPVQLDETHPYTVTSVS [NEK8] .
*A* 1.0

*Q* Now try DLGDIVARSESVLLHMPQPVNPEL [TRIM43] .
*A* 0.0

*Q* Now try SDRFGRKKVYLTGFALDILFAIAN [SLC22A15] .
*A* 0.0

###

Give protein stability index for every item shown.
assayProcedure: protein stability index of a GFP-peptide fusion (GPS, HEK-293T) (PSI 1-6); higher = more stable
testSettings: treatment: MLN4924 1 uM, 8 h; c terminus: a fixed tail appended
Answer field: number only, no words.

*Q* What value of protein stability index has been recorded for this entry: PGSIIGPQQHFLEEKQASLWVQGD [CDC14A]
*A* 4.14

*Q* Now try LSQMGAQSSGKILLCPLCQEEEQA [TRIM15] .
*A* 4.39

*Q* Now try EVLRSEAGIELIIEDDIRPEKQKR [MYBL2] .
*A* 4.31

*Q* Now try ASPRRLSNVSSSGSINLLESPQLA [MAP2] .
*A* 4.12

*Q* Now try MPPKFKRHLNDDDVTGSVKSERRN [VAMP4] .
*A* 4.84

*Q* Now try TMGAVVLSSTLLSFSTAIGRTCIT [MFSD9] .
*A* 3.22

*Q* Now try ESEGSESSGRSCRNERSIQEKLQV [SMG5] .
*A* 4.75

###

assayProcedure: protein stability index of a GFP-peptide fusion (GPS, HEK-293T) (PSI 1-6); higher = more stable
testSettings: treatment: DMSO; c terminus: a fixed tail appended
Param threshold (4) applies to protein stability index; output fulfilled when value >= threshold, not fulfilled when value < threshold.

*Q* Given KMKGFGFWPAKVMQKEDNQVDVRF [ZMYND11] , state whether its protein stability index is at least 4.
*A* not fulfilled

*Q* Now try LAYGSVITVKNLRMAIGYLHSHRH [POMT2] .
*A* not fulfilled

*Q* Now try PKCSCGQLAAVHLSKSRTDYQPTQ [RNF180] .
*A* not fulfilled

*Q* Now try IKMMQAVRQAFQDQDDRRTWDGRP [GFOD1] .
*A* not fulfilled

*Q* Now try AVGNSSGSGQNEESPRKRKKATEA [FBXO28] .
*A* fulfilled

*Q* Now try PVPPPSYFATFYSCTPRMNRRMVG [FAM189A2] .
*A* not fulfilled

*Q* Now try LCSDLEEAPEAELSQAPAEGPDLV [HES6] .
*A* fulfilled

*Q* Now try LTEQVWKVQDALQNQSDSLLALAG [SCARA5] .
*A* not fulfilled

*Q* Now try MQCLISNVEAQLSEIRCDLERQNQ [KRT36] .
*A* not fulfilled

*Q* Now try HRVLQRLEQRRQQASEREAPSIEQ [FCHSD1] .
*A* fulfilled

*Q* Now try AARVGLLQYSTQVHTEFTLRNFNS [MATN2] .
*A* not fulfilled

*Q* Now try WQVLCMLSLCCWGWVSGQLRYSVV [PCDHGC5] .
*A* not fulfilled

*Q* Now try QSFREQEEPSNKRVRPLARVTSLA [NET1] .
*A* fulfilled

*Q* Now try SITSKPATLTTTSATSKLIHPDED [ZNF207] .
*A* fulfilled

*Q* Now try MKACQEDDVRLLCHLTPSIYTEFP [INTS3] .
*A* not fulfilled

*Q* Now try DWEIQEDSRLMCSSVQKALFEEED [CCDC3] .
*A* fulfilled

*Q* Now try RRRSRKKPSGALGSESYKSSAGSA [EHMT1] .
*A* fulfilled

Data provenance: the supplement of paper PMC10567573
